target: Replicase polyprotein 1ab (Middle East respiratory syndrome-related coronavirus (isolate United Kingdom/H123990006/2012), UniProt K9N7C7); experiment: Binding affinity to MERS-CoV papain-like protease by SPR analysis
Sequence (K9N7C7 854-2740 limits assumed): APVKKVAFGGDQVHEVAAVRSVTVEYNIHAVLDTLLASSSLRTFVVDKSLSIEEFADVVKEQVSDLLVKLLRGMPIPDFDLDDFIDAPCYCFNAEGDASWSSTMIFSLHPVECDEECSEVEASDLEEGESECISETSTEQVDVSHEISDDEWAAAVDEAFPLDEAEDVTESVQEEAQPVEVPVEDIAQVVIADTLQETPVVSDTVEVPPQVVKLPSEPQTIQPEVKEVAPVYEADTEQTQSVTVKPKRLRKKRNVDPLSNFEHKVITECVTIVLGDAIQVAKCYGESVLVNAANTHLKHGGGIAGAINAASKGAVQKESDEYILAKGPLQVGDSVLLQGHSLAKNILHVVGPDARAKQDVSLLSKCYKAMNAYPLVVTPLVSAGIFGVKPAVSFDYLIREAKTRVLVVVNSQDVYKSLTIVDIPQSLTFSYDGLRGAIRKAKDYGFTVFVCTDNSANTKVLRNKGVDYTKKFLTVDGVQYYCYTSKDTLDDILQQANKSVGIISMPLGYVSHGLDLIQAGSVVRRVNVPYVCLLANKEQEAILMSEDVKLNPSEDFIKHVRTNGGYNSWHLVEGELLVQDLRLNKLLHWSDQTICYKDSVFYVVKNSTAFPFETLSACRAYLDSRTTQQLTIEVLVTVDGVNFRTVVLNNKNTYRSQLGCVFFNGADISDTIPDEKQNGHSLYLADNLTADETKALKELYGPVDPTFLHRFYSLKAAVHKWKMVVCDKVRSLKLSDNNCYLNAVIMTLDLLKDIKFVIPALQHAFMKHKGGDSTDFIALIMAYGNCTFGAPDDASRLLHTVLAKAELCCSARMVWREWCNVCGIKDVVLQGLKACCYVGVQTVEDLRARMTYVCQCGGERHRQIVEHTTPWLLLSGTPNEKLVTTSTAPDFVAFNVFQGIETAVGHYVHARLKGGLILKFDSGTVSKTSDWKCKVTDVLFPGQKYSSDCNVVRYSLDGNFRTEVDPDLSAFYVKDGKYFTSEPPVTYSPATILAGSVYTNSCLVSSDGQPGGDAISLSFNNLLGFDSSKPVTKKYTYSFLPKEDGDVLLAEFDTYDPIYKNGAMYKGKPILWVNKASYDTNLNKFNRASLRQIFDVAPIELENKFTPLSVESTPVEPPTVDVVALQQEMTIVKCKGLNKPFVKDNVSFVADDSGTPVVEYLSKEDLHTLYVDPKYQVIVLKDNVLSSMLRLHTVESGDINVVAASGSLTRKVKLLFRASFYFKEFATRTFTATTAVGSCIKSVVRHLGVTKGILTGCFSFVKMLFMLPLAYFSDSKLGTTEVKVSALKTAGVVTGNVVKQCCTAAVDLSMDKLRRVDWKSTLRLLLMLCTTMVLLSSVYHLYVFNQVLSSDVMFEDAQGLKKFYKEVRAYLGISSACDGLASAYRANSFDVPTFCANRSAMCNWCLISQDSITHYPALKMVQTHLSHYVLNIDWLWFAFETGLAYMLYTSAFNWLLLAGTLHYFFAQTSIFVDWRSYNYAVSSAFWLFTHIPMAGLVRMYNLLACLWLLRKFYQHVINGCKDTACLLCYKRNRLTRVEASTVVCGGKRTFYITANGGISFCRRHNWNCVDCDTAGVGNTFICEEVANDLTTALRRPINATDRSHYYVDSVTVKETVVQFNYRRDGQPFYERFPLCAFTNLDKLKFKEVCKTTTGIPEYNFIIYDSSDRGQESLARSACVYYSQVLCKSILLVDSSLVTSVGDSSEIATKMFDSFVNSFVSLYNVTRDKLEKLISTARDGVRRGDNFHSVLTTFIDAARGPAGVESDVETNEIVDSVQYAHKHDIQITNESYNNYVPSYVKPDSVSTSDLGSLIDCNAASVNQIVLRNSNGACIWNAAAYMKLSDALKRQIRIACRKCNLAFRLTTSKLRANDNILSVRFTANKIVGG
ENDPOINT: pKd
// returns pKd (minus log10 of molar concentration), number only

The value of pKd measured for the compound O=C(NC1=CC=CC2C(=O)C=C(c3nn[nH]n3)OC12)c1ccc(OCCCCc2ccccc2)cc1 (stereo unspecified) turned out to be 4.85

###

molecular target: Replicase polyprotein 1ab (Middle East respiratory syndrome-related coronavirus (isolate United Kingdom/H123990006/2012), UniProt K9N7C7); test: Competitive-inhibition of MERS-CoV papain-like protease using varying levels of Z-Arg-Leu-Arg-Gly-Gly-AMC as substrate by Dixon-plot analysis
ENDPOINT: pKi
pKi here: minus log base 10 of the concentration, concentration in moles per litre.

Lab note: measured pKi of O=C(NC1=CC=CC2C(=O)C=C(c3nn[nH]n3)OC12)c1ccc(OCCCCc2ccccc2)cc1 (stereo unspecified) [ONO-1078] was 3.90
